Catalogue of EC50 readings, one per entry.
Target: GABAA1 (α1β2γ2) receptor (Homo sapiens, UniProt P14867+P47870)
Sequence (P14867 28-456): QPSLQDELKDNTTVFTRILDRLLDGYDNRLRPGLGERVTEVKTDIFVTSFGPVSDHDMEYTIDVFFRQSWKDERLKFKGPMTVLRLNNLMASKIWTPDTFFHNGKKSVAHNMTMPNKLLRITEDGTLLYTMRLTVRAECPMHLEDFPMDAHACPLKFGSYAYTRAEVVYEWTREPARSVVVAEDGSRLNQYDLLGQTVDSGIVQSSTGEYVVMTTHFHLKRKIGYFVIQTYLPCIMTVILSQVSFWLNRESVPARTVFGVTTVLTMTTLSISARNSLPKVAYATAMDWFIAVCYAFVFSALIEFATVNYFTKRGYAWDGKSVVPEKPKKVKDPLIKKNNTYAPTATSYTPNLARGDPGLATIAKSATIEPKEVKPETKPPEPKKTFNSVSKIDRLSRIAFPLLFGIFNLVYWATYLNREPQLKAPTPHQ
Sequence (P47870 26-512): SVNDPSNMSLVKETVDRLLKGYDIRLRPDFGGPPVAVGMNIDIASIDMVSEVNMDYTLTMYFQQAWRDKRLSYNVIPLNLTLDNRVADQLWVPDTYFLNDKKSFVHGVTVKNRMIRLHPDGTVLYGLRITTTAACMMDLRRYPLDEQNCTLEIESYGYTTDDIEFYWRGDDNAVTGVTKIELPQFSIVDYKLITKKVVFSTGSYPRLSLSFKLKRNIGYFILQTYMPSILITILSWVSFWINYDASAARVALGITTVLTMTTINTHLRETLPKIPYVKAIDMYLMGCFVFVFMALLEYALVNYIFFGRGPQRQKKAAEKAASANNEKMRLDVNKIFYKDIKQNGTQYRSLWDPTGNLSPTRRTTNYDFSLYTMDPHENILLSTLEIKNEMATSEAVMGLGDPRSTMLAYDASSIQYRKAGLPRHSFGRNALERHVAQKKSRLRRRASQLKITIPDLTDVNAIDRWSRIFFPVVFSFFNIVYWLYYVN
Sequence (P18507 40-475 partner): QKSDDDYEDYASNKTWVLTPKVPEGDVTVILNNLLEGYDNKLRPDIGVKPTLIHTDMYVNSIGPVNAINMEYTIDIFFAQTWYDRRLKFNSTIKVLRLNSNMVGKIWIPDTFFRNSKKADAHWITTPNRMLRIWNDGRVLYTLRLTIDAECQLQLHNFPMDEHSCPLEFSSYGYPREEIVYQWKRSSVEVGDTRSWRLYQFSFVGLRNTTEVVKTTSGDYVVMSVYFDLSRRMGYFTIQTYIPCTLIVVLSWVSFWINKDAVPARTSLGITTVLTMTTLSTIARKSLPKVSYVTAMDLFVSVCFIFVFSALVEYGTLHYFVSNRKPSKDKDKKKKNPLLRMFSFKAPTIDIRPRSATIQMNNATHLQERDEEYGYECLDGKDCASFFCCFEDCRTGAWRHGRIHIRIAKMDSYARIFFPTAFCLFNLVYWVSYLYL
Experiment: Patch-clamp electrophysiology on recombinant GABAA1 receptor in HEK293 cells, with 3 μM GABA
Settings: together with 3 μmol GABA

Query Smiles	Quantity Unit	EC50
C[C@]12CC[C@@H](O)C[C@@H]1CC[C@@H]1[C@@H]2CC[C@]2(C)[C@@H](C(=O)Cn3ccnn3)CCC[C@@H]12	nM	478
C[C@]12CC[C@@H](O)C[C@@H]1CC[C@@H]1[C@@H]2CC[C@]2(C)[C@@H](C(=O)Cn3ncnn3)CCC[C@@H]12	nM	404
C[C@@]1(O)CC[C@@]2(C)[C@@H](CC[C@@H]3[C@@H]2CC[C@]2(C)[C@@H](C(=O)Cn4ncnn4)CCC[C@@H]32)C1	nM	821
C[C@@]1(O)CC[C@@]2(C)[C@@H](CC[C@@H]3[C@@H]2CC[C@]2(C)[C@@H](C(=O)COc4noc5ccccc45)CCC[C@@H]32)C1	nM	620
C[C@]12CC[C@@H](O)C[C@@H]1CC[C@@H]1[C@@H]2CC[C@]2(C)[C@@H](C(=O)Cn3cc(C#N)cn3)CCC[C@@H]12	nM	464
